Origin of values: PubChem BioAssay AID1963964

Test system: 997726-040-R-J2-PDC tumor spheroids, viability;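 further: spheroids exposed to compounds for seven days before readout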
Test: Anticancer human tumor 997726-040-R-J2-PDC patient-derived squamous cell lung carcinoma cell line growth inhibition [PI3K]
Settings: second compound 1 µM; first compound 3.16 µM; stronger effect = lower value; spheroids with HUVEC and MSC
Property Label: viability, T/C

I'm curious: which viability, T/C was measured for C#Cc1c(F)ccc2cc(O)cc(-c3ncc4c(N5CC6CCC(C5)N6)nc(OCC56CCCN5CC(F)C6)nc4c3F)c12 (stereo not given) + CC(Nc1ccc2c(c1)OCCn1cc(N3C(=O)OCC3C(F)F)nc1-2)C(N)=O tested on 997726-040-R-J2-PDC tumor spheroids, viability? 26.1%

Next compound: CNC(=O)c1ccc(N2C(=S)N(c3ccc(C#N)c(C(F)(F)F)c3)C(=O)C2(C)C)cc1F + CC(Nc1ncnc2nc[nH]c12)c1cc2cccc(Cl)c2c(=O)n1-c1ccccc1 89%

Next compound: C=CC(=O)N1CCN(c2nc(=O)n(-c3c(C)ccnc3C(C)C)c3nc(-c4c(O)cccc4F)c(F)cc23)C(C)C1 (stereo not given) + CC(Nc1ccc2c(c1)OCCn1cc(N3C(=O)OCC3C(F)F)nc1-2)C(N)=O 30%

Next compound: C=CC(=O)N1CCN(c2nc(=O)n(-c3c(C)ccnc3C(C)C)c3nc(-c4c(O)cccc4F)c(F)cc23)C(C)C1 (stereo not given) + CC(Nc1ncnc2nc[nH]c12)c1cc2cccc(Cl)c2c(=O)n1-c1ccccc1 120%

Next compound: Cn1nccc1Nc1nccc(-c2ccn(C(CO)c3ccc(Cl)c(F)c3)c(=O)c2)n1 (stereo not given) + CC(Nc1ncnc2nc[nH]c12)c1cc2cccc(Cl)c2c(=O)n1-c1ccccc1 58.8%
